Overview of reported Kd across a group of binders:
- EXPERIMENTAL TARGET: T1, Human SIRPαV1 (NP_542970.1), Extracellular Domain + His-Tag (human, UniProt P78324 31-373)
- T1 construct: also called huSIRPαV1; hSIRPαV1; not shown: His-Tag
- T1 sequence (P78324 other isoform, or with tags, fused parts or gaps): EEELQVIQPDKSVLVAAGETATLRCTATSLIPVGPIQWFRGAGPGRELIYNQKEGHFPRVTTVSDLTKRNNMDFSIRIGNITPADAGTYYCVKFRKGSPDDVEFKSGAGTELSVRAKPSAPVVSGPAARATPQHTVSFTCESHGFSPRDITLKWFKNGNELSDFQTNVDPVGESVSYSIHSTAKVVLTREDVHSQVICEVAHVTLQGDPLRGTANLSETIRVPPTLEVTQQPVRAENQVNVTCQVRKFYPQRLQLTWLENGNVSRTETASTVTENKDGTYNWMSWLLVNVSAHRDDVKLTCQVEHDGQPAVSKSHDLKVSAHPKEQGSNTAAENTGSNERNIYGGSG
- ASSAY NOTES: SPR, antibody captured on Protein A/G, ECD-His analyte, 1:1 fit
# output: bare number, implied unit nM

{"BINDER": "Antibody E16 (antibody, human IgG1, kappa, L234A L235A, V domains shown) VH: QVQLQESGPGLVRPSETLSLTCTVSGGSIRNYYWSWIRQPPGKGLEWIGFIYYNGRTFYNPSLKSRVTISLDTSKNQFSLKMTSVTAADTAVYYCARVRAYSGIGLDGTDVWGQGTTVTVSS VL: DIVMTQSPLSLPVTPGEPASISCKSSQSLLYSNAYNYLDWYLQRPGQSPQLLIYLGSNRASGVPDRFSGSGSGTDFTLKISRVEAEDVGVYYCMQALQTPLTFGGGTKVEIKR", "Kd (nM)": 2.15}

Kindly review the next binder as well.
For reference, reported Kd for Antibody A15 (antibody, human IgG1, kappa, L234A L235A, V domains shown) VH: EVQLVESGGGLVQPGGSLRLSCAASGFTLSSYDMHWVRQAPGKGLEWVSAIGTAGDTYYTGSVKGRFTISRENAKNSLYLQMNSLRAEDTAVYYCVRGGVWDDAFDIWGQGTMVTVSS VL: DIQMTQSPSSLSASVGDRVTITCRASQDINNYLAWFQQKPGKAPKSLIYTASSLHSGVPSKFSGSGSGTDFTLTISSLQPEDFATYYCQQYVSYPYTFGQGTKLEIKR stands at 7.06
